- Target Desc: BACE1 in primary mouse cortical neurons (mouse, UniProt P56818 46-501)
- Sequence (P56818 46-501): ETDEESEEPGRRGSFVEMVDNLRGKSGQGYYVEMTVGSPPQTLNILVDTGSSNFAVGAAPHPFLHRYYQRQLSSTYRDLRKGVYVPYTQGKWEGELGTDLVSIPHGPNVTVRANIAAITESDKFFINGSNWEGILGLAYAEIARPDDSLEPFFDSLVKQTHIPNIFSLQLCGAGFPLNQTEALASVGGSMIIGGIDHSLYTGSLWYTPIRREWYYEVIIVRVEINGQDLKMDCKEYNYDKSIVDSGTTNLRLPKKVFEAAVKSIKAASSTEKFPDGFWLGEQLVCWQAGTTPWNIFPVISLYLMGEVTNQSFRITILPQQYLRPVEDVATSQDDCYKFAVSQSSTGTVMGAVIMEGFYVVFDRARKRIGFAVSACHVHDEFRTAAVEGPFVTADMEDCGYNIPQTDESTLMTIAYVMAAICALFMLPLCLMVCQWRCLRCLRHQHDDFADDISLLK
- Measurement Protocol: cell-based or functional assay
Measured maximal % inhibition of Abeta x-40 values are reported for all entries that follow.
Give your result in % as a bare value.

Binder	Observable	Endpoint Value
6271 (antibody, V domains shown, anti-BACE1 IgG) VH: QVQLVQSGAEVKKPGSSVKVSCKASGGTISGYGISWVRQAPGQGLEWMGNIIPGFGTANYAQKFQGRVTITADESTSTAYMELSSLRSEDTAVYYCARSGGTKYGMLDVWGQGTMVTVSS VL: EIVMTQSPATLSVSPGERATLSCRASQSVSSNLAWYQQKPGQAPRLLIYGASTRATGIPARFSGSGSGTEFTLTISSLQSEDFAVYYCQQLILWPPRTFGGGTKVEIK	maximal % inhibition of Abeta x-40	83
6291 (antibody, V domains shown, anti-BACE1 IgG) VH: QLQLQESGPGLVKPSETLSLTCTVSGGSISSSSYYWGWIRQPPGKGLEWIGMIYYSGSTWYNPSLKSRVTISVDTSKNQFSLKLSSVTAADTAVYYCARVGHGVSYFDLWGRGTLVTVSS VL: EIVLTQSPATLSLSPGERATLSCRASQSVSSYLAWYQQKPGQAPRLLIYGASKRATGIPARFSGSGSGTDFTLTISSLEPEDFAVYYCQQVYTWPPRTFGGGTKVEIK	maximal % inhibition of Abeta x-40	68

For the next question, use this binder.
Task: What value of maximal % inhibition of Abeta x-40 has been recorded for this entry: 5933 (antibody, V domains shown, anti-BACE1 IgG) VH: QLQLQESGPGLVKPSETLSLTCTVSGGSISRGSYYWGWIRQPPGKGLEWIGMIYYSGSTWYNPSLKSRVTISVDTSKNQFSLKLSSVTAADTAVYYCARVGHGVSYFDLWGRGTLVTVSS VL: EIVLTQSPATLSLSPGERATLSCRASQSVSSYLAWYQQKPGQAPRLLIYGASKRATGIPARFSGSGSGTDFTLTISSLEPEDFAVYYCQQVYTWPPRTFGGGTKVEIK
Result: 67
